# Test system: Staphylococcus aureus
# test: Bactericidal activity against Staphylococcus aureus NCTC 8530 planktonic forms
# Format: functional
I'd appreciate it if you could supply MBC values for the items below.
Numbers only, in µM.

CCCCCCCCCCCCCC(=O)N[C@@H](CCC(=O)O)C(=O)N[C@@H](CC(C)C)C(=O)N[C@@H](CC(=O)O)C(=O)N[C@H](CCCNC(=N)N)C(=O)N[C@H](C(=O)NCC(=O)N[C@@H](Cc1ccc(O)cc1)C(=O)NCC(=O)N[C@H](C(=O)N[C@@H](C)C(=O)N[C@H](CCCNC(=N)N)C(=O)N[C@H](CCCNC(=N)N)C(=O)N[C@@H](CCCCN)C(=O)N[C@@H](CCCCN)C(=O)N[C@@H](CCCNC(=N)N)C(=O)O)[C@@H](C)O)[C@@H](C)CC
10
CCCCCCCCCCCCCC(=O)N[C@@H](CCC(=O)O)C(=O)N[C@@H](CC(C)C)C(=O)N[C@@H](CC(=O)O)C(=O)N[C@@H](CCCNC(=N)N)C(=O)N[C@H](C(=O)NCC(=O)N[C@@H](Cc1ccc(O)cc1)C(=O)NCC(=O)N[C@H](C(=O)N[C@@H](C)C(=O)N[C@@H](CCCNC(=N)N)C(=O)N[C@@H](CCCNC(=N)N)C(=O)N[C@H](CCCCN)C(=O)N[C@H](CCCCN)C(=O)N[C@@H](CCCNC(=N)N)C(=O)O)[C@@H](C)O)[C@@H](C)CC
10

# ---- query compound ----
Query: MBC of `CC[C@H](C)[C@H](NC(=O)[C@H](CCCNC(=N)N)NC(=O)[C@H](CC(=O)O)NC(=O)[C@H](CC(C)C)NC(=O)[C@@H](N)CCC(=O)O)C(=O)NCC(=O)N[C@@H](Cc1ccc(O)cc1)C(=O)NCC(=O)N[C@H](C(=O)N[C@@H](C)C(=O)N[C@@H](CCCNC(=N)N)C(=O)N[C@@H](CCCNC(=N)N)C(=O)N[C@H](CCCCN)C(=O)N[C@H](CCCCN)C(=O)N[C@@H](CCCNC(=N)N)C(=O)O)[C@@H](C)O` on Staphylococcus aureus?
Reply: 60

---

# Tested on: Escherichia coli
# test: Bactericidal activity against Escherichia coli MG1655 planktonic forms
# Assay type: functional
attribute_measured: MBC (µM)
Numbers only, in µM.

Solved entries:
CCCCCCCCCCCCCC(=O)N[C@@H](C)C(=O)N[C@@H](Cc1ccccc1)C(=O)N[C@H](C(=O)N[C@@H](CCCNC(=N)N)C(=O)N[C@@H](CCCNC(=N)N)C(=O)N[C@@H](CCCNC(=N)N)C(=O)N[C@@H](CO)C(=O)N[C@@H](Cc1ccc(O)cc1)C(=O)N[C@@H](CO)C(=O)N[C@H](C(=O)N[C@@H](CCC(=O)O)C(=O)N[C@@H](Cc1ccc(O)cc1)C(=O)N[C@@H](CO)C(=O)N[C@@H](Cc1ccc(O)cc1)C(=O)NCC(=O)N[C@H](C(=O)N[C@H](C(=O)N[C@H](C(N)=O)C(C)C)[C@@H](C)O)[C@@H](C)O)[C@@H](C)O)[C@@H](C)O
10
CCCCCCCCCCCCCC(=O)N[C@@H](CCC(=O)O)C(=O)N[C@@H](CC(C)C)C(=O)N[C@@H](CC(=O)O)C(=O)N[C@H](CCCNC(=N)N)C(=O)N[C@H](C(=O)NCC(=O)N[C@@H](Cc1ccc(O)cc1)C(=O)NCC(=O)N[C@H](C(=O)N[C@@H](C)C(=O)N[C@H](CCCNC(=N)N)C(=O)N[C@H](CCCNC(=N)N)C(=O)N[C@@H](CCCCN)C(=O)N[C@@H](CCCCN)C(=O)N[C@@H](CCCNC(=N)N)C(=O)O)[C@@H](C)O)[C@@H](C)CC
5

Query: May I ask what MBC has been recorded for `CCCCCCCCCCCCCC(=O)N[C@@H](C)C(=O)N[C@@H](Cc1ccccc1)C(=O)N[C@H](C(=O)N[C@H](CCCNC(=N)N)C(=O)N[C@H](CCCNC(=N)N)C(=O)N[C@H](CCCNC(=N)N)C(=O)N[C@@H](CO)C(=O)N[C@@H](Cc1ccc(O)cc1)C(=O)N[C@@H](CO)C(=O)N[C@H](C(=O)N[C@@H](CCC(=O)O)C(=O)N[C@@H](Cc1ccc(O)cc1)C(=O)N[C@@H](CO)C(=O)N[C@@H](Cc1ccc(O)cc1)C(=O)NCC(=O)N[C@H](C(=O)N[C@H](C(=O)N[C@H](C(N)=O)C(C)C)[C@@H](C)O)[C@@H](C)O)[C@@H](C)O)[C@@H](C)O` ?
Reply: 20

Data credit: ChEMBL document CHEMBL4052697
